Tested on: CCRF-CEM
Assay: Cytotoxicity against human CEM cells assessed as reduction in cell viability after 6 days by trypan blue exclusion assay
Format: cell-based
Conditions: ccrf-cem, 144 h
PROPERTY_NAME: CC50

>>> df
                                   molecule  reported_measurement
0  CC(C)OC(=O)[C@H](C)N[P@](=O)(OC[C@H]1O[C@@H](n2ccc(=O)[nH]c2=O)C(Br)(Br)[C@@H]1O)Oc1ccccc1                 95 µM
1  CC(C)OC(=O)[C@H](C)N[P@](=O)(OC[C@H]1O[C@@H](n2cnc3c(=O)[nH]c(N)nc32)C(Br)(Br)[C@@H]1O)Oc1ccccc1                 34 µM
2  Nc1nc2c(ncn2[C@@H]2O[C@H](CO)C(O)C2(Br)Br)c(=O)[nH]1 (single isomer, unassigned)              > 100 µM
3  Nc1ccn([C@@H]2O[C@H](CO)C(O)C2(Br)Br)c(=O)n1 (single isomer, unassigned)                 82 µM
